All figures here come from paper PMC4862007.

List of pIC50 values.
Biological target: ABHD5 / PLIN1 (luciferase complementation) (Mus musculus, UniProt Q9DBL9)
Sequence (Q9DBL9 whole entry): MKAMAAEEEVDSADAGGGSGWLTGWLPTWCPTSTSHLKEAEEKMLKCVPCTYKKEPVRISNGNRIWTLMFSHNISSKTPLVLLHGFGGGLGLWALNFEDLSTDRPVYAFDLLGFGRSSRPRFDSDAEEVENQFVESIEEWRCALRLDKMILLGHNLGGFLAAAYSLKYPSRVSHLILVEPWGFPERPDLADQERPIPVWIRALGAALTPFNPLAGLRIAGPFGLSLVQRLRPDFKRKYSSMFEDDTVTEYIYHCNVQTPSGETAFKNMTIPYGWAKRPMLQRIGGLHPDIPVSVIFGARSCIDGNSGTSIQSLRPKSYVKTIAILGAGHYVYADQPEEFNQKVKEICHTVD
Sequence (Q8CGN5 whole entry partner): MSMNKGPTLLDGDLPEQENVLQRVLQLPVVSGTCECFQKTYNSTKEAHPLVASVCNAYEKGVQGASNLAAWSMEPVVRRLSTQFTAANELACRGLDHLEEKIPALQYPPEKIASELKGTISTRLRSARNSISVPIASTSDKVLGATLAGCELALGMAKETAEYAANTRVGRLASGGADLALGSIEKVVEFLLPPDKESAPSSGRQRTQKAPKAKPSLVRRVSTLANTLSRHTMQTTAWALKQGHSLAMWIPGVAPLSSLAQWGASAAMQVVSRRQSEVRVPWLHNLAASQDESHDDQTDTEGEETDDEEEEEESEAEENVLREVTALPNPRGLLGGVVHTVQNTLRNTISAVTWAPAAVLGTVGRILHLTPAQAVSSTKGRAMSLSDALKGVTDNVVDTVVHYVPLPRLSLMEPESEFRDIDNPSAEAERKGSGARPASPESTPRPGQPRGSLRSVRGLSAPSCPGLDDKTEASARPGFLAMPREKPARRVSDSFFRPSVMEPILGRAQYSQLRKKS
Assay: luciferase complementation, disruption of ABHD5-PLIN1 binding
Settings: mixed 293T lysates, 4 h, room temperature; n=8
pIC50: −log10 of the molar value.
Assay Readout: pIC50

- Structure Smiles: "Cc1ccc2c(CC(=O)N3CCN(S(=O)(=O)c4ccc5c(c4)OCCO5)CC3)coc2c1"
  Assay Target: "ABHD5 / PLIN1 (luciferase complementation) (Mus musculus, UniProt Q9DBL9)"
  Assay Readout: "pIC50"
  Meas Value: 6.29
- Structure Smiles: "CCCCNC(=O)Nc1ccc2c(c1)N(C)C(=O)c1ccccc1S2"
  Assay Target: "ABHD5 / PLIN1 (luciferase complementation) (Mus musculus, UniProt Q9DBL9)"
  Assay Readout: "pIC50"
  Meas Value: 6.70
